The binders listed here are annotated with their Kd.
- study-target: recombinant human CD3ε/δ heterodimer (human) (UniProt P07766)
- Sequence (P07766 23-126, stated change not applied, chain 1 of 2): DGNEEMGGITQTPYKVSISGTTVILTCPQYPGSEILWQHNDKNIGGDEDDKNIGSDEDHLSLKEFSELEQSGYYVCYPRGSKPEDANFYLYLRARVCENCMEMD
- Sequence (P04234 22-105, stated change not applied, chain 2 of 2, further chain): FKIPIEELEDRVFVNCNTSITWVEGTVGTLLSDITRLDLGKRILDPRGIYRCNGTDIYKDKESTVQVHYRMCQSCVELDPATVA
- assay-procedure: BLI (Octet), antigen on anti-Penta His sensor, antibody 50 nM
measure: Kd

- binder: "C08 (antibody, human IgG1, lambda, L234A L235A, V domains shown) VH: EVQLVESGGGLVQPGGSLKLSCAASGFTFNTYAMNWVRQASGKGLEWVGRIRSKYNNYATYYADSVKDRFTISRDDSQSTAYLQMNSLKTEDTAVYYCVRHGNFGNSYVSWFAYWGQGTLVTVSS VL: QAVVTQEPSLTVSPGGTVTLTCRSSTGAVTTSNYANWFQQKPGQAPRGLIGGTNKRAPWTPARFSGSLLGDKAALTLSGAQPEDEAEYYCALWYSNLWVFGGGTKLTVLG"
  measure: "Kd"
  experimental-value: "29.4 nM"
- binder: "G16 (antibody, human IgG1, lambda, L234A L235A, V domains shown) VH: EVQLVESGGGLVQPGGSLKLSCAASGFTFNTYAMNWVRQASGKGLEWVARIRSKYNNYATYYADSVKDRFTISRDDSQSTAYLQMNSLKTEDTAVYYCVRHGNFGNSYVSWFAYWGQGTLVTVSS VL: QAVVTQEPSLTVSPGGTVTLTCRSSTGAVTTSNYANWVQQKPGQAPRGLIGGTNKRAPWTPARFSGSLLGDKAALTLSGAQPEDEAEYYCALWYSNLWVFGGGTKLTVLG"
  measure: "Kd"
  experimental-value: "1.32 nM"
- binder: "H15 (antibody, human IgG1, lambda, L234A L235A, V domains shown) VH: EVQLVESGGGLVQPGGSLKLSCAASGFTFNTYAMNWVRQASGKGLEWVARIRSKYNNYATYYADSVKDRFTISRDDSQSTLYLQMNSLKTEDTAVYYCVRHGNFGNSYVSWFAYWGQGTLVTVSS VL: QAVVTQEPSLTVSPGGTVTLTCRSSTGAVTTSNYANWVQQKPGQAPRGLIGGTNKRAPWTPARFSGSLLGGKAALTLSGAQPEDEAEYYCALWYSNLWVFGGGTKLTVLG"
  measure: "Kd"
  experimental-value: "0.953 nM"
